Kindly supply the reported shrunken log2 fold change values for the records listed here.
System: Escherichia coli TOP10
PROTOCOL SUMMARY: shrunken log2 fold change of peptide-encoding DNA abundance (4.5 h post-induction vs induction); higher = less antimicrobial activity (less host growth inhibition)
SETTINGS: time post-induction: 4.5 h; library: site-saturation at positions 5, 18, 19, 20
Give bare numbers.

Answered examples (3):
- RRIRNRPPRLPRPRPRPHTKPRP: -0.238
- RRIRYRPPRLPRPRPRPDEYPRP: -0.0128
- RRIRNRPPRLPRPRPRPSWCPRP: -0.0906

Could you report shrunken log2 fold change for every entry in the following list?
1. RRIRSRPPRLPRPRPRPKAAPRP
2. RRIRARPPRLPRPRPRPSNVPRP
3. RRIRSRPPRLPRPRPRPPANPRP

1: 0.252; 2: -0.248; 3: 0.283

Could you report shrunken log2 fold change for every entry in the following list?
1. RRIRRRPPRLPRPRPRPHPEPRP
2. RRIRHRPPRLPRPRPRPGAVPRP

0.0463
0.433

###

Test system: Escherichia coli TOP10
PROTOCOL SUMMARY: shrunken log2 fold change of peptide-encoding DNA abundance (4.5 h post-induction vs induction); higher = less antimicrobial activity (less host growth inhibition)
SETTINGS: time post-induction: 4.5 h; library: site-saturation at positions 5, 18, 19, 20
Threshold check on shrunken log2 fold change: at or above 0.06 gives fulfilled, strictly below gives not fulfilled.

Worked set:
* RRIRARPPRLPRPRPRPQIEPRP | fulfilled
* RRIRYRPPRLPRPRPRPRIKPRP | not fulfilled
* RRIRQRPPRLPRPRPRPRQDPRP | fulfilled
* RRIRTRPPRLPRPRPRPCFNPRP | not fulfilled
* RRIRSRPPRLPRPRPRPGYPPRP | not fulfilled

Hello, I need to know if `RRIRFRPPRLPRPRPRPDYDPRP` has measured shrunken log2 fold change not below 0.06. Thanks! not fulfilled

Further, for `RRIRLRPPRLPRPRPRPINVPRP` ? not fulfilled

Further, for `RRIRLRPPRLPRPRPRPSICPRP` ? not fulfilled

Further, for `RRIRQRPPRLPRPRPRPCVDPRP` ? fulfilled

Further, for `RRIRDRPPRLPRPRPRPHSMPRP` ? not fulfilled

Further, for `RRIRYRPPRLPRPRPRPRHRPRP` ? not fulfilled

Further, for `RRIRLRPPRLPRPRPRPPSEPRP` ? fulfilled

Further, for `RRIRMRPPRLPRPRPRPFGMPRP` ? not fulfilled

Further, for `RRIRMRPPRLPRPRPRPYAGPRP` ? not fulfilled

Further, for `RRIRHRPPRLPRPRPRPANEPRP` ? not fulfilled

Further, for `RRIRRRPPRLPRPRPRPIKNPRP` ? fulfilled

###

Kindly supply the reported shrunken log2 fold change values for the records listed here.
System: Escherichia coli TOP10
PROTOCOL SUMMARY: shrunken log2 fold change of peptide-encoding DNA abundance (4.5 h post-induction vs induction); higher = less antimicrobial activity (less host growth inhibition)
SETTINGS: time post-induction: 4.5 h; library: site-saturation at positions 5, 18, 19, 20
Give bare numbers.

Answered examples (5):
• RRIRKRPPRLPRPRPRPTIIPRP = -0.0974
• RRIRHRPPRLPRPRPRPVEAPRP = 0.0753
• RRIRERPPRLPRPRPRPMCKPRP = -0.373
• RRIRYRPPRLPRPRPRPHCDPRP = -0.0698
• RRIRNRPPRLPRPRPRPATPPRP = 0.537

Could you report shrunken log2 fold change for every entry in the following list?
1. RRIRERPPRLPRPRPRPYRLPRP
2. RRIRRRPPRLPRPRPRPSCTPRP
3. RRIRCRPPRLPRPRPRPFNGPRP
4. RRIRSRPPRLPRPRPRPIGKPRP

1. -0.102
2. 0.0387
3. -0.148
4. 0.0386

Could you report shrunken log2 fold change for every entry in the following list?
1. RRIRQRPPRLPRPRPRPEKEPRP
2. RRIRARPPRLPRPRPRPTSSPRP

[-0.0081, 0.289]

###

System: Escherichia coli TOP10
PROTOCOL SUMMARY: shrunken log2 fold change of peptide-encoding DNA abundance (4.5 h post-induction vs induction); higher = less antimicrobial activity (less host growth inhibition)
SETTINGS: time post-induction: 4.5 h; library: site-saturation at positions 5, 18, 19, 20
MEASUREMENT TYPE: shrunken log2 fold change
Answers are plain numbers.

- RRIRYRPPRLPRPRPRPMRLPRP: -0.039
- RRIRLRPPRLPRPRPRPNNFPRP: -0.184
- RRIRRRPPRLPRPRPRPNDGPRP: 0.0979

// below: shrunken log2 fold change requested for another sequence
Please report the recorded shrunken log2 fold change for `RRIRWRPPRLPRPRPRPVKWPRP` . -0.0659

###

Tested on: Escherichia coli TOP10
PROTOCOL SUMMARY: shrunken log2 fold change of peptide-encoding DNA abundance (4.5 h post-induction vs induction); higher = less antimicrobial activity (less host growth inhibition)
SETTINGS: time post-induction: 4.5 h; library: site-saturation at positions 5, 18, 19, 20
MEASUREMENT TYPE: shrunken log2 fold change
One number for each entry.

• RRIRKRPPRLPRPRPRPYELPRP = -0.0181

Could you report shrunken log2 fold change for every entry in the following list?
1. RRIRARPPRLPRPRPRPAALPRP
2. RRIRGRPPRLPRPRPRPDHHPRP
3. RRIRERPPRLPRPRPRPINWPRP
4. RRIRHRPPRLPRPRPRPDLDPRP
5. RRIRLRPPRLPRPRPRPAIFPRP
6. RRIRFRPPRLPRPRPRPKMGPRP

0.805
-0.0187
-0.169
-0.0331
-0.391
-0.122

###

Kindly supply the reported shrunken log2 fold change values for the records listed here.
Tested on: Escherichia coli TOP10
PROTOCOL SUMMARY: shrunken log2 fold change of peptide-encoding DNA abundance (4.5 h post-induction vs induction); higher = less antimicrobial activity (less host growth inhibition)
SETTINGS: time post-induction: 4.5 h; library: site-saturation at positions 5, 18, 19, 20

Answered examples (5):
* RRIRNRPPRLPRPRPRPRSNPRP | -0.0866
* RRIRRRPPRLPRPRPRPEDVPRP | -0.0417
* RRIRGRPPRLPRPRPRPECDPRP | 2.16
* RRIRCRPPRLPRPRPRPSMDPRP | -0.182
* RRIRNRPPRLPRPRPRPYTVPRP | 0.0303

Could you report shrunken log2 fold change for every entry in the following list?
1. RRIRYRPPRLPRPRPRPTMDPRP
2. RRIRKRPPRLPRPRPRPTEWPRP
3. RRIRRRPPRLPRPRPRPKLPPRP
4. RRIRDRPPRLPRPRPRPCTKPRP
5. RRIRARPPRLPRPRPRPRARPRP
6. RRIRLRPPRLPRPRPRPVSWPRP

[-0.67, 0.0407, 0.369, -0.0891, 0.911, 0.22]

Could you report shrunken log2 fold change for every entry in the following list?
1. RRIRFRPPRLPRPRPRPVTAPRP
2. RRIRHRPPRLPRPRPRPFDMPRP
3. RRIRERPPRLPRPRPRPWEHPRP
4. RRIRARPPRLPRPRPRPFLAPRP

1: -0.0836; 2: -0.00783; 3: -0.221; 4: -0.122

###

Kindly supply the reported shrunken log2 fold change values for the records listed here.
System: Escherichia coli TOP10
PROTOCOL SUMMARY: shrunken log2 fold change of peptide-encoding DNA abundance (4.5 h post-induction vs induction); higher = less antimicrobial activity (less host growth inhibition)
SETTINGS: time post-induction: 4.5 h; library: site-saturation at positions 5, 18, 19, 20
One number for each entry.

Answered examples (8):
- RRIRIRPPRLPRPRPRPYMYPRP: -0.91
- RRIRTRPPRLPRPRPRPQFPPRP: -0.0282
- RRIRQRPPRLPRPRPRPEAMPRP: 0.00408
- RRIRDRPPRLPRPRPRPRGRPRP: 0.614
- RRIRQRPPRLPRPRPRPFNVPRP: -0.375
- RRIRYRPPRLPRPRPRPWVRPRP: -0.108
- RRIRFRPPRLPRPRPRPSRAPRP: 0.352
- RRIRLRPPRLPRPRPRPVISPRP: -0.266

// below: shrunken log2 fold change requested for another sequence
Please report the recorded shrunken log2 fold change for `RRIRFRPPRLPRPRPRPGEHPRP` . -0.0294

###

Tested on: Escherichia coli TOP10;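 further: peptides expressed intracellularly from a pBAD plasmid library in pooled LB shake-flask culture, induced with 0.3% L-arabinose, DNA abundance read by NGS, three biological replicates, DESeq2 with apeglm shrinkage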
PROTOCOL SUMMARY: shrunken log2 fold change of peptide-encoding DNA abundance (4.5 h post-induction vs induction); higher = less antimicrobial activity (less host growth inhibition)
SETTINGS: time post-induction: 4.5 h; library: site-saturation at positions 5, 18, 19, 20
Threshold check on shrunken log2 fold change: at or above -0.05 gives Yes, strictly below gives No.

Worked set:
- RRIRHRPPRLPRPRPRPLWCPRP: No
- RRIRQRPPRLPRPRPRPYCLPRP: No

Hello, I need to know if `RRIRTRPPRLPRPRPRPQYGPRP` has measured shrunken log2 fold change not below -0.05. Thanks! No

Further, for `RRIRRRPPRLPRPRPRPTIYPRP` ? No

Further, for `RRIRVRPPRLPRPRPRPCNHPRP` ? No

Further, for `RRIRARPPRLPRPRPRPSLWPRP` ? Yes

Further, for `RRIRQRPPRLPRPRPRPMWHPRP` ? No

Further, for `RRIRRRPPRLPRPRPRPHHWPRP` ? Yes
